Target: S. cerevisiae (yeast) cells expressing SRIF receptors (Rattus norvegicus, UniProt P30680)
Construct: expressed in transfected cells; host or cells: S. cerevisiae strain LY364
Sequence (P30680 whole entry): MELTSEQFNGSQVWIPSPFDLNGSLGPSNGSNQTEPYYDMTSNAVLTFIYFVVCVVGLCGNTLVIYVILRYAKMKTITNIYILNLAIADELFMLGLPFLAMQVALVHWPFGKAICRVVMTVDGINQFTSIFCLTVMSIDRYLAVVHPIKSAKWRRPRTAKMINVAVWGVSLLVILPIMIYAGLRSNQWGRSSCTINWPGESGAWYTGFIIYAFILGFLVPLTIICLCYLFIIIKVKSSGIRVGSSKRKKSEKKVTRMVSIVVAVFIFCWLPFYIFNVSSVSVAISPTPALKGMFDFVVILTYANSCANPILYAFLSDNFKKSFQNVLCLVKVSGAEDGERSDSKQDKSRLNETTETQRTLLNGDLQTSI
Assay: Yeast bioassay for SRIF antagonist activity (LY364 cells growing in response to SRIF, zone of growth inhibition)
Assay type: cell-based
Settings: Sample type 4th iteration; 10 μL of 5 mg/mL on disk, SRIF 10 nM, read after 3 days
Square brackets hold non-standard residues; d marks the D form. Peptide text beside a SMILES is read from it.
Parameter: Inhibition Zone (mm)
Report as a plain number; the unit mm is understood.

compound="CC[C@@H](C)[C@@H](NC(=O)[C@@H](Cc1ccccc1)NC(=O)[C@@H](Cc1c[nH]cn1)NC(C)=O)C(=O)N[C@H](CCCNC(=N)N)C(=O)N[C@H](Cc1c[nH]c2ccccc12)C(=O)N[C@H](CC(N)=O)C(N)=O [His Phe Ile Arg Trp Asn] (Ac-[dH][dF][dI][dR][dW][dN]-NH2)" target_system="S. cerevisiae (yeast) cells expressing SRIF receptors (Rattus norvegicus, UniProt P30680)" experimental_result=15

QUERY: Report Inhibition Zone for CC[C@@H](C)[C@@H](NC(=O)[C@@H](Cc1ccccc1)NC(=O)[C@@H](Cc1c[nH]cn1)NC(C)=O)C(=O)N[C@H](CCCNC(=N)N)C(=O)N[C@H](Cc1c[nH]c2ccccc12)C(=O)N[C@H](C)C(N)=O [His Phe Ile Arg Trp Ala] (Ac-[dH][dF][dI][dR][dW][dA]-NH2) please.
RESULT: 15

QUERY: Which Inhibition Zone reading was recorded for the compound CC[C@@H](C)[C@@H](NC(=O)[C@@H](Cc1ccccc1)NC(=O)[C@@H](Cc1c[nH]cn1)NC(C)=O)C(=O)N[C@H](CCCNC(=N)N)C(=O)N[C@H](Cc1c[nH]c2ccccc12)C(=O)NCC(N)=O [His Phe Ile Arg Trp Gly] (Ac-[dH][dF][dI][dR][dW]G-NH2) ?
RESULT: 13

QUERY: Entry under review: CC[C@@H](C)[C@@H](NC(=O)[C@@H](Cc1ccccc1)NC(=O)[C@@H](Cc1c[nH]cn1)NC(C)=O)C(=O)N[C@H](CCCNC(=N)N)C(=O)N[C@H](Cc1c[nH]c2ccccc12)C(=O)N[C@H](CCC(N)=O)C(N)=O [His Phe Ile Arg Trp Gln] (Ac-[dH][dF][dI][dR][dW][dQ]-NH2) . Reported Inhibition Zone?
RESULT: 16

QUERY: So what's the measured Inhibition Zone for this one? CC[C@@H](C)[C@@H](NC(=O)[C@@H](Cc1ccccc1)NC(=O)[C@@H](Cc1c[nH]cn1)NC(C)=O)C(=O)N[C@H](CCCNC(=N)N)C(=O)N[C@H](Cc1c[nH]c2ccccc12)C(=O)N[C@H](Cc1c[nH]c2ccccc12)C(N)=O [His Phe Ile Arg Trp Trp] (Ac-[dH][dF][dI][dR][dW][dW]-NH2)
RESULT: 16

###

Molecular target: S. cerevisiae (yeast) cells expressing SRIF receptors (Rattus norvegicus)
Construct: expressed in transfected cells; host or cells: S. cerevisiae strain LY364
Test: Yeast bioassay for SRIF antagonist activity (LY364 cells growing in response to SRIF, zone of growth inhibition)
Format: cell-based
Conditions: Sample type 4th iteration; 10 μL of 5 mg/mL on disk, SRIF 10 nM, read after 3 days
Square brackets hold non-standard residues; d marks the D form. Peptide text beside a SMILES is read from it.
Parameter: Inhibition Zone (mm)
Unit mm implied. Number only.

compound="CC[C@@H](C)[C@@H](NC(=O)[C@@H](Cc1ccccc1)NC(=O)[C@@H](Cc1c[nH]cn1)NC(C)=O)C(=O)N[C@H](CCCNC(=N)N)C(=O)N[C@H](Cc1c[nH]c2ccccc12)C(=O)N[C@H](CCSC)C(N)=O [His Phe Ile Arg Trp Met] (Ac-[dH][dF][dI][dR][dW][dM]-NH2)" experimental_result=18

Alright, here's another compound for you.
QUERY: Query: Inhibition Zone; subject: CC[C@@H](C)[C@@H](NC(=O)[C@@H](Cc1c[nH]c2ccccc12)NC(=O)[C@@H](CCCNC(=N)N)NC(=O)[C@H](NC(=O)[C@@H](Cc1ccccc1)NC(=O)[C@@H](Cc1c[nH]cn1)NC(C)=O)[C@H](C)CC)C(N)=O [His Phe Ile Arg Trp Ile] (Ac-[dH][dF][dI][dR][dW][dI]-NH2)
RESULT: 16

###

Target: rat SSTR2 (Rattus norvegicus)
Construct: expressed in transfected cells; host or cells: GH4C1 rat pituitary tumor cells
Test: cAMP accumulation in forskolin-stimulated GH4 C1/SSTR2 cells
Assay type: cell-based
Conditions: GH4-C1; test peptide 2 μM; read-out: cAMP Assay, Intrinsic activity (percent reversal of SSTR2 activation by SRIF or MK678)
Square brackets hold non-standard residues; d marks the D form. Peptide text beside a SMILES is read from it.
Parameter: Emax (%)

a: CC[C@@H](C)[C@@H](NC(=O)[C@@H](Cc1c[nH]cn1)NC(C)=O)C(=O)N[C@H](CCCNC(=N)N)C(=O)N[C@H](Cc1c[nH]c2ccccc12)C(=O)N[C@H](Cc1ccccc1)C(N)=O [Peptide 8, h-i-r-w-f] (Ac-[dH][dI][dR][dW][dF]-NH2)
b: CC[C@@H](C)[C@@H](NC(=O)[C@@H](Cc1ccccc1)NC(=O)[C@@H](Cc1c[nH]cn1)NC(C)=O)C(=O)N[C@H](Cc1c[nH]c2ccccc12)C(=O)N[C@H](Cc1ccccc1)C(N)=O [Peptide 10, h-f-i-w-f] (Ac-[dH][dF][dI][dW][dF]-NH2)
QUERY: Please indicate which has the smaller reported Emax: a , or b . Respond with the label that goes with your answer.
RESULT: a
(a: 2.76%, b: 25.3%)

###

Molecular target: rat SSTR2 (Rattus norvegicus, UniProt P30680)
Construct: expressed in transfected cells; host or cells: GH4C1 rat pituitary tumor cells
Assay: cAMP accumulation in forskolin-stimulated GH4 C1/SSTR2 cells
Assay type: cell-based
Settings: GH4-C1; test peptide 2 μM; read-out: cAMP Assay, Intrinsic activity (percent reversal of SSTR2 activation by SRIF or MK678)
Square brackets hold non-standard residues; d marks the D form. Peptide text beside a SMILES is read from it.
Parameter: Emax (%)
Write the value in % as a bare number.

compound="CC[C@@H](C)[C@@H](NC(=O)[C@@H](Cc1ccccc1)NC(=O)[C@@H](Cc1c[nH]cn1)NC(C)=O)C(=O)N[C@H](CCCNC(=N)N)C(=O)N[C@H](Cc1ccccc1)C(N)=O [Peptide 11, h-f-i-r-f] (Ac-[dH][dF][dI][dR][dF]-NH2)" target_system="rat SSTR2 (Rattus norvegicus, UniProt P30680)" experimental_result=12.1

QUERY: For the compound shown here, CC[C@@H](C)[C@@H](NC(=O)[C@@H](Cc1c[nH]c2ccccc12)NC(=O)[C@@H](Cc1c[nH]cn1)NC(C)=O)C(=O)N[C@H](CCCNC(=N)N)C(=O)N[C@H](Cc1c[nH]c2ccccc12)C(=O)N[C@H](Cc1ccccc1)C(N)=O [Peptide 21, h-w-i-r-w-f] (Ac-[dH][dW][dI][dR][dW][dF]-NH2) , give the reported Emax.
RESULT: 54.7

###

Molecular target: rat SSTR2 (Rattus norvegicus, UniProt P30680)
Construct: expressed in transfected cells; host or cells: GH4C1 rat pituitary tumor cells
Experiment: cAMP accumulation in forskolin-stimulated GH4 C1/SSTR2 cells
Type: cell-based
Settings: GH4-C1; test peptide 2 μM; read-out: cAMP Assay, Intrinsic activity (percent reversal of SSTR2 activation by SRIF or MK678)
Square brackets hold non-standard residues; d marks the D form. Peptide text beside a SMILES is read from it.
Parameter: Emax (%)
Supply the numeric figure in %, leaving out any unit text.

Worked cases, Emax given:
compound="CC[C@@H](C)[C@@H](NC(=O)[C@H](Cc1ccccc1)NC(=O)[C@@H](Cc1c[nH]cn1)NC(C)=O)C(=O)N[C@H](CCCNC(=N)N)C(=O)N[C@H](Cc1c[nH]c2ccccc12)C(=O)N[C@H](Cc1ccccc1)C(N)=O [Peptide 14, h-F-i-r-w-f] (Ac-[dH]F[dI][dR][dW][dF]-NH2)" parameter=Emax experimental_result=29.6
compound="CC[C@@H](C)[C@@H](NC(=O)[C@@H](Cc1ccccc1)NC(=O)[C@@H](Cc1c[nH]cn1)NC(C)=O)C(=O)N[C@@H](CCCNC(=N)N)C(=O)N[C@H](Cc1c[nH]c2ccccc12)C(=O)N[C@H](Cc1ccccc1)C(N)=O [Peptide 16, h-f-i-R-w-f] (Ac-[dH][dF][dI]R[dW][dF]-NH2)" parameter=Emax experimental_result=43.6
compound="CC[C@@H](C)[C@@H](NC(=O)[C@@H](Cc1ccc(O)cc1)NC(=O)[C@@H](Cc1c[nH]c2ccccc12)NC(C)=O)C(=O)N[C@H](CCCNC(=N)N)C(=O)N[C@H](Cc1c[nH]c2ccccc12)C(=O)N[C@H](Cc1ccccc1)C(N)=O [Peptide 23, w-y-i-r-w-f] (Ac-[dW][dY][dI][dR][dW][dF]-NH2)" parameter=Emax experimental_result=5.64
compound="CC[C@@H](C)[C@@H](NC(=O)[C@@H](Cc1c[nH]cn1)NC(=O)[C@@H](Cc1c[nH]c2ccccc12)NC(C)=O)C(=O)N[C@H](CCCNC(=N)N)C(=O)N[C@H](Cc1c[nH]c2ccccc12)C(=O)N[C@H](Cc1ccccc1)C(N)=O [Peptide 22, w-h-i-r-w-f] (Ac-[dW][dH][dI][dR][dW][dF]-NH2)" parameter=Emax experimental_result=27.4
compound="CC[C@@H](C)[C@@H](NC(=O)[C@@H](Cc1ccc(O)cc1)NC(=O)[C@@H](CCCCN)NC(C)=O)C(=O)N[C@H](CCCNC(=N)N)C(=O)N[C@H](Cc1c[nH]c2ccccc12)C(=O)N[C@H](Cc1ccccc1)C(N)=O [Peptide 19, k-y-i-r-w-f] (Ac-[dK][dY][dI][dR][dW][dF]-NH2)" parameter=Emax experimental_result=33.3

Turning to the following compound.
QUERY: Which value of Emax has been reported for CC[C@H](C)[C@H](NC(=O)[C@@H](Cc1ccccc1)NC(=O)[C@@H](Cc1c[nH]cn1)NC(C)=O)C(=O)N[C@H](CCCNC(=N)N)C(=O)N[C@H](Cc1c[nH]c2ccccc12)C(=O)N[C@H](Cc1ccccc1)C(N)=O [Peptide 15, h-f-I-r-w-f] (Ac-[dH][dF]I[dR][dW][dF]-NH2) in the records?
RESULT: 9.71
